# Assay Target: UniProt P08684
# Sequence (P08684 whole entry): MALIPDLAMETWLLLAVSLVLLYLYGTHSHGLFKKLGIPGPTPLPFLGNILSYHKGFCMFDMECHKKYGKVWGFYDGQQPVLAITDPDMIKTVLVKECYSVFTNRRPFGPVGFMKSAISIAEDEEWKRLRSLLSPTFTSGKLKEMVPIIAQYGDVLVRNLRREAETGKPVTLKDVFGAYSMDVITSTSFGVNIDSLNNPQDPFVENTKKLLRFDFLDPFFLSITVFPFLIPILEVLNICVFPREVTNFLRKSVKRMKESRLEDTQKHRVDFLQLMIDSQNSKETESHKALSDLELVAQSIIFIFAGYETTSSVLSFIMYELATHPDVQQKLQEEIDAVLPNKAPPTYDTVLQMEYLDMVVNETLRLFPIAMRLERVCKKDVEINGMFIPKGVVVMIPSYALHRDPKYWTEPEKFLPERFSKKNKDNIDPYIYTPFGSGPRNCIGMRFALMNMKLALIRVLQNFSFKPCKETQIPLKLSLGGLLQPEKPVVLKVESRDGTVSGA
# Assay Remarks: Inhibition of human CYP3A4 at 10 uM
# Type: ADME
Give inhibition at 10 µM for every item shown.
Give bare numbers, in %.

Example entries and their recorded answers appear below.
CC(C)COc1ccc(-c2nc(-c3cccnc3)n[nH]2)cc1[N+](=O)[O-] : 18.2
Cc1cc(-c2nc(-c3ccc(OCC(C)C)c([N+](=O)[O-])c3)n[nH]2)ccn1 : 7.7
COCCOCCOc1ccc(-c2nc(-c3ccnc(C)c3)n[nH]2)cc1C#N : -6.7
CC(C)COc1ccc(-c2n[nH]c(-c3ccncc3)n2)cc1[N+](=O)[O-] : 80.9

I need inhibition at 10 µM for every entry listed below, if you could help.
1. Cc1cc(-c2nc(-c3ccc(OCC(C)C)c(C#N)c3)n[nH]2)ccn1
2. CC(C)COc1ccc(-c2nc(-c3ccnc(Cl)c3)n[nH]2)cc1[N+](=O)[O-]
3. Cc1cc(-c2nnc(-c3ccc(OCC(C)C)c([N+](=O)[O-])c3)[nH]2)cc(Cl)n1
4. COc1cc(-c2n[nH]c(-c3ccc(OCC(C)C)c([N+](=O)[O-])c3)n2)ccn1

output:
16.8
7.1
10.9
6.4

input: Form field: reported inhibition at 10 µM of COCCOCOc1ccc(-c2nc(-c3ccnc(C)c3)n[nH]2)cc1C#N
output: 16.5
